- targetSystem: ZFP SBS#1179 (synthetic)
- Sequence (chain, as listed by the source): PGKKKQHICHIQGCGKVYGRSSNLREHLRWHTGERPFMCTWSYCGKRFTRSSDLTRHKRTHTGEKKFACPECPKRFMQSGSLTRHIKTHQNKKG
- measurementProtocol: EMSA
- studyConditions: tags: MBP fusion

| binder | Kd (nM) |
| --- | --- |
| GCAGCGCAG (dsDNA) DNA 1: GCAGCGCAG DNA 2: CTGCGCTGC | 2.73 |
